All values here come from the METLIN SMRT retention time set (Domingo-Almenara et al. 2019).

# Method Summary: gradient 5% acetonitrile 3 min, to 50% in 2 min, to 85% in 15 min, held 3 min, 100 µL/min
# Test Parameters: column: Zorbax Extend-C18 2.1 x 50 mm; eluents: water / acetonitrile, 0.1% formic acid
Please respond with satisfied when measured RP-LC retention time is strictly beneath 900 s, and with not satisfied in all other cases.

>>> df
                                   compound          class
0  Cc1ccccc1N1C(=O)CN(S(=O)(=O)c2ccccc2)CC1(C)C(=O)NCCC(C)C (stereo not given)  not satisfied
1  COc1ccc(CNC(=O)c2ccc(N3CCCS3(=O)=O)cc2)cc1OC      satisfied
2  CC(C)Cn1cc(CCNS(=O)(=O)Cc2cccc(Cl)c2)c2cccnc21  not satisfied
3  O=C(c1cc(-c2ccncc2)n[nH]1)N1CCCC(C(=O)N2CCN(c3ncccn3)CC2)C1 (stereo not given)      satisfied

---

# Method Summary: gradient 5% acetonitrile 3 min, to 50% in 2 min, to 85% in 15 min, held 3 min, 100 µL/min
# Test Parameters: column: Zorbax Extend-C18 2.1 x 50 mm; eluents: water / acetonitrile, 0.1% formic acid
Parameter Measured: RP-LC retention time (s)

>>> df
                                    compound    parameter_measured  unit_label  result_value
 0  O=c1c2c(CO)c(-c3ccccc3)nn2ccn1Cc1cc(F)ccc1F  RP-LC retention time           s           924
 1       Nc1cc(C2CCN(C(=O)Cc3ccccc3F)CC2)no1  RP-LC retention time           s           676
 2  COc1ccc(C)cc1NC(=O)C1CCN(S(=O)(=O)c2cn(C)cn2)CC1  RP-LC retention time           s           666
 3  CCc1noc(NC(C)=O)c1-c1ccc(C)c(S(=O)(=O)Nc2ccc(Cl)cc2C)c1  RP-LC retention time           s           888
 4  C=Cc1ccc(Cn2nc3ccc(S(=O)(=O)N4CCOCC4)cn3c2=O)cc1  RP-LC retention time           s           864
 5  CC(C)CCN1CCC(N2CCN(C(=O)CC(C)C)CC2)C1=O (centres undefined)  RP-LC retention time           s           579
 6  COc1ccc(-c2ccc(=O)n(Cc3nc(-c4ccc(C)cc4)no3)n2)cc1OC  RP-LC retention time           s           925
 7  CCc1ccccc1NC(=O)Cc1c(C)nn(-c2nc(-c3ccccc3)cs2)c1C  RP-LC retention time           s           704
 8  Cn1nc(C2CCCN2C(=O)C2(c3ccccc3)CC2)n(Cc2ccccc2)c1=O (centres undefined)  RP-LC retention time           s           830
 9  O=C(NCCc1ccncc1)C1CCCN(c2nnc3ccc(C(F)(F)F)cn23)C1 (centres undefined)  RP-LC retention time           s           537
10  COCCN1CCC2(CC1)CN(Cc1ccc(C(C)C)cc1)Cc1ccccc1O2  RP-LC retention time           s           667
11  Cc1ccc(-c2cn3ccccc3n2)cc1NS(=O)(=O)c1ccc(F)cc1  RP-LC retention time           s           665
12  O=C(Nc1ccc2c(c1)CCCN2C(=O)C1CC1)c1nc2ccccc2s1  RP-LC retention time           s           968
13  Cc1ccccc1-c1noc(Cc2nnc(-c3cccc(Br)c3)o2)n1  RP-LC retention time           s           853
14      CCn1cc(-c2ccc(OC)cc2)cc1C(=O)N1CCCC1  RP-LC retention time           s           952
15  COc1ccc(S(=O)(=O)Nc2cc(-c3cn4ccccc4n3)ccc2C)cc1  RP-LC retention time           s           797
16   Cc1cccc2nnc(N3CCC(C(=O)N4CCOCC4)CC3)n12  RP-LC retention time           s           568
17  CCCOC(=O)c1cccc(Nc2nc(C(=O)OCC)nc3ccccc23)c1  RP-LC retention time           s           955
18  CC(C)Oc1ccc(CNC(=O)C2CCN(c3cnc4nccnc4c3)CC2)cc1  RP-LC retention time           s           683
19  COc1ccc(-c2cc(N3CCN(C(=O)COc4ccc(Cl)cc4)CC3)ncn2)cc1  RP-LC retention time           s           738
20  CCn1c(=O)sc2cc(S(=O)(=O)N3CCC(C(=O)Nc4cc(C)ccc4C)CC3)ccc21  RP-LC retention time           s           932
21  COCCCNC(=O)N1CCCCCC1c1ccccc1Cl (centres undefined)  RP-LC retention time           s           933
22  Cc1ccc(NC(=O)C2CCCN2S(=O)(=O)c2cc3c(cc2C)NC(=O)CO3)cc1C (centres undefined)  RP-LC retention time           s           794
23  CN(C)c1ccc(CNC(=O)C2CCN(c3cc(N4CCSCC4)ncn3)CC2)cc1  RP-LC retention time           s           579
24  CC(C)c1ccc(NC(=O)C2CCCN(c3ncnc4c3oc3ccccc34)C2)cc1 (centres undefined)  RP-LC retention time           s           976
25  O=C(Nc1cccc(F)c1)N1CCC2(C1)C(=O)Nc1ccccc12 (centres undefined)  RP-LC retention time           s           730
26  Cc1ccc(S(=O)(=O)N2CCC(n3c(-c4ccoc4)nc4cccnc43)C2)cc1Cl (centres undefined)  RP-LC retention time           s           986
27     CCCC(CCC)C(=O)NCCc1c[nH]c2cc(OC)ccc12  RP-LC retention time           s           886
28    O=C(NCC1(c2ccccc2)CCOCC1)c1c(F)cccc1Cl  RP-LC retention time           s           769
29  O=C(CCc1csc(NC(=O)c2ccccc2)n1)Nc1nc2ccc(Cl)cc2s1  RP-LC retention time           s           970
30  Cc1ccc(CNC(=O)C2CCN(S(=O)(=O)c3ccc4c(c3)sc(=O)n4C)CC2)cc1  RP-LC retention time           s           862
31  Cc1sc2ncnc(N3CCCC(C)C3)c2c1C(=O)Nc1cc(F)ccc1Cl (centres undefined)  RP-LC retention time           s          1450
32  O=C(CN1c2ccc(F)cc2-c2ccccc2S1(=O)=O)N1CCCCC1  RP-LC retention time           s           915
33    Cc1cc2nc(C(=O)Nc3cccc(C#N)c3)cc(C)n2n1  RP-LC retention time           s           901
34       CN(Cc1cccnc1Oc1ccccc1)C(=O)c1cccn1C  RP-LC retention time           s           781
35  CC(C)CCN1C(=O)CC[C@]2(C(=O)N3CCN(c4ccc(F)cc4)CC3)CCCC[C@@H]12  RP-LC retention time           s          1010
36  CCc1ccc(Nc2nc(C(=O)NCCc3cccs3)nc3ccccc23)cc1  RP-LC retention time           s           907
37  CCn1ccc(C(=O)NCc2c(-c3ccccc3)nc3sc(C)nn23)n1  RP-LC retention time           s           743
38  O=C(NCC1CCS(=O)(=O)C1)c1cc(-c2ccc(F)cc2)n[nH]1 (centres undefined)  RP-LC retention time           s           643
